PROTOCOL TEXT: Fecal excretion study in rats after oral NS, SF or CNS (LC–MS/MS)
Type: in vivo
SETTINGS: rat feces, oral NS 60 mg/kg, 4 h
EXPERIMENTAL ENDPOINT: Accumulative excretion percentage (%)
The reply should be a number in %, with the unit left off.

>  <COMPOUND>
CC(C)=CCC[C@](C)(O[C@@H]1O[C@H](CO)[C@@H](O)[C@H](O)[C@H]1O)[C@H]1CC[C@]2(C)[C@@H]1[C@H](O)C[C@@H]1[C@@]3(C)CC[C@H](O)C(C)(C)[C@@H]3[C@@H](O[C@@H]3O[C@H](CO)[C@@H](O)[C@H](O)[C@H]3O[C@@H]3O[C@@H](C)[C@H](O)[C@@H](O)[C@H]3O)C[C@]12C [ginsenoside Re]

>  <RESULT UNITS>
%

>  <Accumulative excretion percentage>
0.852

$$$$

# Accumulative excretion percentage (compound: CC(C)=CCC[C@](C)(O[C@@H]1O[C@H](CO)[C@@H](O)[C@H](O)[C@H]1O)[C@H]1CC[C@]2(C)[C@@H]1[C@H](O)C[C@@H]1[C@@]3(C)CC[C@H](O[C@@H]4O[C@H](CO)[C@@H](O)[C@H](O)[C@H]4O[C@@H]4O[C@H](CO)[C@@H](O)[C@H](O)[C@H]4O)C(C)(C)[C@@H]3CC[C@]12C [ginsenoside Rd] ) is 1.232

Record CC(C)=CCC[C@](C)(O[C@@H]1O[C@H](CO)[C@@H](O)[C@H](O)[C@H]1O)[C@H]1CC[C@]2(C)[C@@H]1[C@H](O)C[C@@H]1[C@@]3(C)CC[C@H](O)C(C)(C)[C@@H]3[C@@H](O[C@@H]3O[C@H](CO)[C@@H](O)[C@H](O)[C@H]3O)C[C@]12C [ginsenoside Rg1] . Reported Accumulative excretion percentage: 0.612

Please fill in: Accumulative excretion percentage reported for CC(C)=CCC[C@](C)(O[C@@H]1O[C@H](CO[C@@H]2O[C@H](CO)[C@@H](O)[C@H](O)[C@H]2O)[C@@H](O)[C@H](O)[C@H]1O)[C@H]1CC[C@]2(C)[C@@H]1[C@H](O)C[C@@H]1[C@@]3(C)CC[C@H](O[C@@H]4O[C@H](CO)[C@@H](O)[C@H](O)[C@H]4O[C@@H]4O[C@H](CO)[C@@H](O)[C@H](O)[C@H]4O)C(C)(C)[C@@H]3CC[C@]12C [ginsenoside Rb1] = 0.361

----------
Catalogue of Accumulative excretion percentage values
PROTOCOL TEXT: Urinary excretion study in rats after oral NS, SF or CNS (LC–MS/MS)
Format: in vivo
SETTINGS: rat urine, oral CNS 110 mg/kg, 48 h
Express the result in % but write the number alone.

Previously resolved entries follow.
>  <MOLECULE>
CC(C)=CCC[C@](C)(O[C@@H]1O[C@H](CO)[C@@H](O)[C@H](O)[C@H]1O)[C@H]1CC[C@]2(C)[C@@H]1[C@H](O)C[C@@H]1[C@@]3(C)CC[C@H](O)C(C)(C)[C@@H]3[C@@H](O[C@@H]3O[C@H](CO)[C@@H](O)[C@H](O)[C@H]3O[C@@H]3O[C@@H](C)[C@H](O)[C@@H](O)[C@H]3O)C[C@]12C [ginsenoside Re]

>  <Accumulative excretion percentage [%]>
0.095

$$$$
>  <MOLECULE>
CC(C)=CCC[C@](C)(O[C@@H]1O[C@H](CO[C@@H]2O[C@H](CO)[C@@H](O)[C@H](O)[C@H]2O)[C@@H](O)[C@H](O)[C@H]1O)[C@H]1CC[C@]2(C)[C@@H]1[C@H](O)C[C@@H]1[C@@]3(C)CC[C@H](O[C@@H]4O[C@H](CO)[C@@H](O)[C@H](O)[C@H]4O[C@@H]4O[C@H](CO)[C@@H](O)[C@H](O)[C@H]4O)C(C)(C)[C@@H]3CC[C@]12C [ginsenoside Rb1]

>  <Accumulative excretion percentage [%]>
0.035

$$$$
>  <MOLECULE>
CC(C)=CCC[C@](C)(O[C@@H]1O[C@H](CO)[C@@H](O)[C@H](O)[C@H]1O)[C@H]1CC[C@]2(C)[C@@H]1[C@H](O)C[C@@H]1[C@@]3(C)CC[C@H](O[C@@H]4O[C@H](CO)[C@@H](O)[C@H](O)[C@H]4O[C@@H]4O[C@H](CO)[C@@H](O)[C@H](O)[C@H]4O)C(C)(C)[C@@H]3CC[C@]12C [ginsenoside Rd]

>  <Accumulative excretion percentage [%]>
0.018

$$$$

# molecule CC(C)=CCC[C@](C)(O[C@@H]1O[C@H](CO)[C@@H](O)[C@H](O)[C@H]1O)[C@H]1CC[C@]2(C)[C@@H]1[C@H](O)C[C@@H]1[C@@]3(C)CC[C@H](O)C(C)(C)[C@@H]3[C@@H](O[C@@H]3O[C@H](CO)[C@@H](O)[C@H](O)[C@H]3O)C[C@]12C [ginsenoside Rg1] ; its Accumulative excretion percentage = 0.285
